Values were extracted from patent US12312330B2.

target: human bradykinin B2 receptor (hB2R) (Homo sapiens); test: human bradykinin B2 receptor calcium mobilization (hB2R-CaM) assay; conditions: antagonism of bradykinin (EC80) induced calcium mobilization, B2 Bradykinin Receptor Stable Cell Line HTS041C, 25 min pre-incubation; read-out: IC50-value towards human bradykinin B2 receptor (hB2R)
Sequence (P30411 whole entry): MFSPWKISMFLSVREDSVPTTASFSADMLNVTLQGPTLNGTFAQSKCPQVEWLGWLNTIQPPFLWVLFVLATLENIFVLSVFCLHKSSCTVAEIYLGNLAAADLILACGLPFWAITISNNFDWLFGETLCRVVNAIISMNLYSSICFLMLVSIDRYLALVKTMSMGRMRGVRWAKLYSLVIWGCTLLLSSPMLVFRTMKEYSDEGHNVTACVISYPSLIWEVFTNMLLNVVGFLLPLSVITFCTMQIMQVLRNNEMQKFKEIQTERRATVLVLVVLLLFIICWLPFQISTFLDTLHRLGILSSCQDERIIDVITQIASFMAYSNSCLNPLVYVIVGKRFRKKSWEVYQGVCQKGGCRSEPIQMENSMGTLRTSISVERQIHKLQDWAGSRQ
ATTRIBUTE MEASURED: IC50

Form: Entry = Cc1cc(-c2ncnn2C)c2cccc(OCc3c(Cl)cc(F)cc3[C@H](C)N3C(=O)[C@H](C)NC(=O)[C@H]3C)c2n1 | System = human bradykinin B2 receptor (hB2R) (Homo sapiens) | IC50 = ____ 11 to 100 nM

Cc1cc(-n2cc(F)cn2)c2cccc(OCc3c(Cl)cc(F)cc3[C@H](C)N3C(=O)COCC3C)c2n1 (single isomer, unassigned) , same question. 11 to 100 nM

Another compound to check: CNC(=O)CN1C(=O)CN([C@@H](C)c2cc(F)cc(Cl)c2COc2cccc3c(-n4cc(F)cn4)cc(C)nc23)C1=O 11 to 100 nM

# repeat for Cc1cc(-c2ncnn2C)c2cccc(OCc3c(Cl)cc(F)cc3[C@H](C)N3CC(=O)NC(C)(C)C3=O)c2n1 11 to 100 nM

Consider next the compound Cc1cc(-n2cc(F)cn2)c2cccc(OCc3c(Cl)cc(F)cc3[C@H](C)N3CC[C@@H](O)C3=O)c2n1 in the same way. 11 to 100 nM

What would you report for Cc1cc(-c2ncnn2C)c2cccc(OCc3c(Cl)cc(F)cc3[C@H](C)N3CC(=O)N[C@H](C)C3=O)c2n1 ? 11 to 100 nM

Please do the same for Cc1cc(-c2ncnn2C)c2cccc(OCc3c(Cl)cc(F)cc3[C@H](C)N3C[C@@H](C)OCC3=O)c2n1 as well. ≤ 10 nM

// same read-out, input: Cc1cc(-c2ncnn2C)c2cccc(OCc3c(Cl)cc(F)cc3[C@H](C)N3CC(C)CC3=O)c2n1 (stereo partly drawn) ≤ 10 nM

Repeat for the following compound: Cc1cc(-c2ncnn2C)c2cccc(OCc3c(Cl)cc(F)cc3[C@H](C)N3C[C@H](O)CC3=O)c2n1 11 to 100 nM

One more compound: COC1CN([C@@H](C)c2cc(F)cc(Cl)c2COc2cccc3c(-n4cc(F)cn4)cc(C)nc23)C(=O)O1 (single isomer, unassigned) [compound 52] 101 to 500 nM

Then Cc1cc(-c2ncnn2C)c2cccc(OCc3c(Cl)cc(F)cc3[C@H](C)N3CC(=O)N(C)[C@@H](C)C3=O)c2n1 ? 11 to 100 nM

Same again, this time with Cc1cc(-c2ncnn2C)c2cccc(OCc3c(Cl)cc(F)cc3[C@H](C)N3C[C@@H](O)CC3=O)c2n1 ≤ 10 nM

Cc1cc(-n2cc(F)cn2)c2cccc(OCc3c(Cl)cc(F)cc3[C@H](C)N3CC(=O)N(C)CC3=O)c2n1 ? ≤ 10 nM

What do we get for Cc1cc(-n2cc(F)cn2)c2cccc(OCc3c(Cl)cc(F)cc3[C@H](C)N3C(=O)[C@@H](C)NC(=O)[C@@H]3C)c2n1 ? 11 to 100 nM

Another compound to look at: Cc1cc(-n2cc(F)cn2)c2cccc(OCc3c(Cl)cc(F)cc3[C@H](C)N3CC(=O)NCC3=O)c2n1 11 to 100 nM
